The measurements presented in this section are drawn from ChEMBL document CHEMBL4368931.

- Tested on: PANC-1
- measurement.description: Antiproliferative activity against human PANC1 cells after 48 hrs by propidium iodide fluorescence assay
- Assay type: functional, cell-based
- measurement.conditions: PANC-1, 48 h
measurement.kind: pIC50
Scale: pIC50 equals -log10([C]), with [C] in mol/L.

Check out these entries, answers already filled in.
COc1cc(/C=C/C(=O)c2ccc(NC(=O)c3cc4cc5cc(C)ccc5nc4s3)cc2)cc(OC)c1OC	5.66
Cc1ccc2nc3sc(C(=O)Nc4ccc(C(=O)/C=C/c5ccc(Cl)cc5)cc4)cc3cc2c1	5.02
COc1ccc2nc3sc(C(=O)Nc4ccc(C(=O)/C=C/c5ccccc5)cc4)cc3cc2c1	5.26
COc1ccc(/C=C/C(=O)c2ccc(NC(=O)c3cc4cc5cc(C)ccc5nc4s3)cc2)cc1OC	5.92
COc1cccc(/C=C/C(=O)c2ccc(NC(=O)c3cc4cc5cc(C)ccc5nc4s3)cc2)c1	5.46

Answer with reported pIC50 of COc1cccc(/C=C/C(=O)c2ccc(NC(=O)c3cc4cc5ccccc5nc4s3)cc2)c1
5.17

Answer with reported pIC50 of COc1ccc2nc3sc(C(=O)Nc4ccc(C(=O)/C=C/c5cc(OC)c(OC)c(OC)c5)cc4)cc3cc2c1
5.85

Answer with reported pIC50 of Cc1ccc2nc3sc(C(=O)Nc4ccc(C(=O)/C=C/c5ccccc5)cc4)cc3cc2c1
5.02
